- PROCEDURE_SUMMARY: Krafft point
- Format: physicochemical
- CONDITION_NOTES: 1.0% in water
OUTCOME_MEASURE: Krafft Point (1.0%) (°C)
Give bare numbers, in °C.

>  <COMPOUND>
CCCCCCCCCCCCCCNC(=O)[C@H](O)[C@@H](O)[C@H](O[C@@H]1O[C@H](CO)[C@H](O)[C@H](O)[C@H]1O)[C@H](O)CO [C14 D-Lactobionamide]

>  <OUTCOME_MEASURE>
Krafft Point (1.0%)

>  <NUMERIC_RESULT>
18

$$$$

// lookup Krafft Point (1.0%) for CCCCCCCCCCCCCCCCCCNC(=O)[C@H](O)[C@@H](O)[C@H](O[C@@H]1O[C@H](CO)[C@H](O)[C@H](O)[C@H]1O)[C@H](O)CO [C18 D-Lactobionamide] 82

====

- PROCEDURE_SUMMARY: Effectiveness in reducing surface tension (surface pressure at CMC)
- Assay type: physicochemical
- CONDITION_NOTES: 60 °C, estimated by extrapolating a linear line
OUTCOME_MEASURE: Πcmc (surface pressure) (dyn/cm)
Answers are plain numbers, in dyn/cm.

>  <SMILES_STR>
CCCCCCCCCCCCOCCOCCOCCOCCO

>  <UNITS_OF_MEASURE>
dyn/cm

>  <Πcmc (surface pressure)>
40.7

$$$$

Please report Πcmc (surface pressure) for every entry that follows.
1. CCCCCCCCCCCCOCCOCCOCCO
2. CCCCCCCCCCCCOCCOCCOCCOCCOCCOCCOCCOCCO
3. CCCCCCCCCCCCOCCOCCOCCOCCOCCOCCOCCO
4. CCCCCCCCCCCCOCCOCCOCCOCCOCCO

1. 41.4
2. 36.3
3. 36.8
4. 40.7

====

- PROCEDURE_SUMMARY: Krafft point
- Type: physicochemical
- CONDITION_NOTES: 1.0% in water
Provide the reported Krafft Point (1.0%) of each item.
One number for each entry, in °C.

Please report Krafft Point (1.0%) for every entry that follows.
1. CCCCCCCCCCCCCCCNC(=O)[C@H](O)[C@@H](O)[C@H](O[C@@H]1O[C@H](CO)[C@H](O)[C@H](O)[C@H]1O)[C@H](O)CO [C15 D-Lactobionamide]
2. CCCCCCCCCNC(=O)[C@H](O)[C@@H](O)[C@H](O[C@@H]1O[C@H](CO)[C@H](O)[C@H](O)[C@H]1O)[C@H](O)CO [C9 D-Lactobionamide, nonyl D-lactobionamide]

1: 84; 2: 42

Please report Krafft Point (1.0%) for every entry that follows.
1. CCCCCCCCCCCNC(=O)[C@H](O)[C@@H](O)[C@H](O[C@@H]1O[C@H](CO)[C@H](O)[C@H](O)[C@H]1O)[C@H](O)CO [C11 D-Lactobionamide]
2. CCCCCCCCCCCCCNC(=O)[C@H](O)[C@@H](O)[C@H](O[C@@H]1O[C@H](CO)[C@H](O)[C@H](O)[C@H]1O)[C@H](O)CO [C13 D-Lactobionamide]
3. CCCCCCCCCCCCCCCCNC(=O)[C@H](O)[C@@H](O)[C@H](O[C@@H]1O[C@H](CO)[C@H](O)[C@H](O)[C@H]1O)[C@H](O)CO [C16 D-Lactobionamide]

1: 61; 2: 70; 3: 64

Please report Krafft Point (1.0%) for every entry that follows.
1. CCCCCCCCCCCCCCNC(=O)[C@H](O)[C@@H](O)[C@H](O[C@H]1O[C@H](CO)[C@@H](O)[C@H](O)[C@H]1O)[C@H](O)CO [C14 D-Maltobionamide]
2. CCCCCCCCCCCCNC(=O)[C@H](O)[C@@H](O)[C@H](O[C@@H]1O[C@H](CO)[C@H](O)[C@H](O)[C@H]1O)[C@H](O)CO [C12 D-Lactobionamide]

1. 46
2. 38
